Entry source: the supplement of paper PMC10567573

B1: INTS4 (parent)
chain: TIIEPAGESDNPLRFTSGLVVALD

Variants of: B1
ASSAY TEXT: protein stability index of a GFP-peptide fusion (GPS, HEK-293T) (PSI 1-6); higher = more stable;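 also: lentivirally expressed fusions sorted by FACS into six bins by GFP to DsRed ratio, PSI derived from sequencing read proportions per bin multiplied by bin number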
ASSAY CONDITIONS: c terminus: a fixed tail appended
For each entry below, report its protein stability index value.
One number for each entry.

Some variants with recorded protein stability index:
| QUERY SEQUENCE | MEAS VALUE |
| --- | --- |
| GIIEPAGESDNPLRFTSGLVVALD [T1G] | 3.82 |
| TIIEPAGESDNPLRFTSDLVVALD [G18D] | 3.67 |
| TIIGPAGESDNPLRFTSGLVVALD [E4G] | 2.25 |
| TIIIPAGESDNPLRFTSGLVVALD [E4I] | 1.72 |
| TIIEPAGESDNPLRFTSGLVVALL [D24L] | 1.73 |

// for each variant below, give its protein stability index
1. TIIEPAGESDGPLRFTSGLVVALD [N11G]
2. TIIEPAGESDNPLRFTSGLVVAKD [L23K]
3. TIIEPAGESDNPLRFTSALVVALD [G18A]
4. TIIEMAGESDNPLRFTSGLVVALD [P5M]

1: 2.38; 2: 4.07; 3: 2.42; 4: 1.76

// for each variant below, give its protein stability index
1. TIIEPAGESDNPLRFTQGLVVALD [S17Q]
2. TIIEPRGESDNPLRFTSGLVVALD [A6R]

[3.06, 3.07]
